assay: yeast display, Sf9 membrane polyspecificity reagent, FACS + sequencing; frameworks hold sequencing errors

Item sequence	polyreactivity (PSR sort gate)
QVQLVESGGGLVQAGGSLRLSCAASGRTLWYYTMGWYRQAPGKERELVADITRGTSTNYADSVKGRFTISRDNAKNTVYLQMNSLKPEDTAVYSCNRAHGRSRYSRDYDSWGQGTQVTVSS	low polyreactivity
QVQLVESGGGLVQAGGSLRLSCSASGSTFYVYAMGWYRQAPGKERELVAAITDSGGSTYYADSVKGRFTISRDNAKNTVYLQMNILKPEDTAVYYCAREYTYRYHYYYWGQGTQVTVSS	low polyreactivity
QDQHVESGGGLVQAGGSLRLSCAASGLTFAVYTMGWYRPAAGKERELVAAITWDGGITYYADSVKGRFTISRDNAKNTVYLQMNSLKPEDTAVYYCAADSREVSTTAYYYWGQGTQVTLSS	low polyreactivity
QVQLVESGGGLVQAGRSLRLSCAASGITFGRNTMGWYRQAPGKERELVAAIDSGGNTYADSVKGRFTISRDNAKNTVYLQMNSLKPEDTAVYYCAVDGGEFSSYGYWGQGTQVSVSS	low polyreactivity
QVQLVESGGGLVQAGGSLRLSCAASGRTFVSYTMGWYRQAPGKERELVAAISSGGSTTYADSVKGRFTISRDNAKNTVYLQMNSLKPEDTAVYYCNARYGWSYWSKYDYWGQGTQVTVSS	high polyreactivity
QVQLEESGGGLVQAGGTLRLSCAACGRTFYRYAMGWYRKAPGKERQLVAAISASGGITYYADSVKGRFTISRDNAKNNVYLQMNSLKADDTAVYYCAVRYNPWYGNYDYWGQGTQVTVSS	high polyreactivity
QVQLVESGGGLVQAGGSLRLSCAASGSIFSGNTMGWYRQAPGKERELVAAISKSGGSTYYADSVKGRFTISRDNAKNTVYLQINSLKPEDTAVYYCAVRIRSRVANPGYRWGFNYWGQGTQVTVSS	high polyreactivity
QVQLVESGGGLVQAGGSLRLSCAASGFTVVSYAMGWYRQAPGKERELVAAITYSGTSTYYADSVKGRFTISRDKAKNTVYLQMNSLKPEDTAVYYCNADSSWVPIWYEYDYWGHGTQVTVSS	low polyreactivity
QVQLVESGGGLVQAGGSLRLSCAASGSIFKDYAMGWYRQAPGKERELVAAITSGGRTNYADSVKGRFTISRDNAKNTVYLQMNSLKPEDTAVYYCAARKGKETLYHSTPPYYYWGQGTQVTVSS	low polyreactivity
QVQLVETGGGLVQAGGSLRLSCAPSGNTIIRYAMGWYRQAPGKERELVAAISYSGGRTYYADSVKGRFTISRDNAKNTVYLQMNSLKPEDTAVYYCNAASRYGGDYWGPGTQVTVSS	high polyreactivity
QVQLVESGGGLVQAGGSLRLSCAASGRIFGNNVMGWYRQAPGKERELVASINYSGGSTYYADSVKGRFTISRDNAKNTVYLQMNSLKPEDTAVYYCARSYGWYPWRTSYTVGFYYWGQGTQVTVSS	high polyreactivity

---

test: yeast display, Sf9 membrane polyspecificity reagent, FACS + sequencing; frameworks hold sequencing errors

Item sequence	polyreactivity (PSR sort gate)
QVQLVESGGRLVQAGGSLRLSCAASGYTFPYANGWYRQAPGKERELVAGITSSGGSTYYADSVKGRFTISRDNAKNTVYLQMNSVKPEDTAVYYCNADVFVWLYPHYLIFDYWGQGTQVTVSS	low polyreactivity
QVQLVESGGGLVQAGGSLRLSCAASGLTFSRYAKGRYRQAPGKERELVAAISSSGTRTYYADSVKGRFTISRDNAKITVYLQMNSLKPEDTAVYYCAARSGGSGGTYGYWGHGTQVTVSS	high polyreactivity
QVHLVESGGGLVQAGASLRLSCAASGRIFYKYAMGWYRQAPGKERELVAAISYRGGSTYYADSVKGRFTISRDNAKNSVYLQMKSLKPEDNAVYYCAADRWYYSVSTKSDSWGQGTQVTVSS	high polyreactivity
QVQLVESGGGLVQAGGRLRLSCAASGFTFKLYAMGWYRQAPGKERELVASISRSGGSTFYADSVKGRFTISRDTAKNTGYLQMNSLKPEDTAVYYCATGWYYSPYNYWGQGTQVTVSS	high polyreactivity
QVQLVESGGGLVQAGGSLRLSCAASGSIFPPYTMGWFRQAPGKELELVATISSTGITNYADSVKGRFTNSRDNAKNTVYLQMNSLKQEDTAVYYCAAGLWYSFDYWGQGTQVTVSS	high polyreactivity
HVQPQESGGGLVQAGGSLRLSCAASGTISADYKMGWYRQAPGKEREFVAANAFGAFTNYADSVKGRFTISRDIAKNTVYLQMNSLKPEDTAVYYCAADLYYYAYDYWGQGTQVTVSS	high polyreactivity
QVQLVESAGGLVQAGGSLRLSCAATGSIFHPYAMGWYRQAPGKERELVASITSSGGSTYYADSVKVRFTISRENAKNTVYLEMNSLKPEDTAVYYCKAQFLVYFFWYSTTAYIMYYWGQGTQVTVSS	low polyreactivity
QVQLVESGGGLVQAGGSLRLSCAASGRTIKSNDMGWYRQAPGKERELVSAISRRGGSTYYADSVKGRFTISRDNAKNTVYLQMNSLKPEDTAVYYCAADLTFSYRQSAGRYSTYGYWGQGTQVTVSS	high polyreactivity
QVQLVESGGGLVQAGGSLRLSCAASGIIFSSNAMGWYRQAPGKERELVAAISRRGGSTYYADSVKGRFTISRDNAKNTVYLQMNSLKPEDTAVYYCNALLYNGAGYDYWGQGSQVTVSS	high polyreactivity
QVQLVESGGGLVQAGGSLRLSCAASGSIFYAYARGWYRQAPGKERELVATISSVGSTYYADSVKGRFTISRDNAKHTVYLHMNSLKPEDTAVHYCAKQRIVVYKTGYDYWGQGTQVTVSS	low polyreactivity
QVQLVESGGGLVQAGGSLRLSCAASGFIFAYNAMGWYRQAPGKERELVAAISWSGGSTYYADSVKGRFTISRDNAKNTVYLQMNSLKPEDTAVYYCNKYIRYPFKRYGYWGQGTQVTVSS	high polyreactivity

---

assay: yeast display, Sf9 membrane polyspecificity reagent, FACS + sequencing; frameworks hold sequencing errors

Item sequence	polyreactivity (PSR sort gate)
QVQLVESGGGLVQEGGSLRLSCAASGSTSRKYTMGWYRQAPGKERELVATISWSGGSTNYADSVKGRFTISRDNAKNNVYLQMNSLIPEDTAVYYCNAYVSPRYRGTRYYYWGQVTQVTVSS	high polyreactivity
QVQLVESGGGLVQAGGRLRLSCAASGRIFYVYAMGGYRQAPGKERELVAAISRGGSTNSADSVKGRFTISRDNAKNTVYLQMNSLKPEDTAVYYCAASSLPHYSYRHSYLYVYWGQCTQVTVSS	low polyreactivity
QVQLVESGGGLVQAGGSLRLSCAASGSISGLYAMGWYRQAPGKERELVARIRWRGDSTYYADSVKGRFTISRDNAKNTVYLQMNSLNPEDTAVFYCAASAYSGKVNKYNYWGQGTQVTVSS	high polyreactivity
QVQLVESGGGLVQAGGSRRLSCAASGRIFRGYAMGWYRQAPGKERELVAAISASGGSTYYADSVKGRYTISRDIAKNTVYLLMISLKQVDTAVYYCATGGYARYDFWGQGTQVTVSS	high polyreactivity
QVQLVESGGGLVQAGGSLRLSCAASGSTFKKYAMGWYRQAPGKERELVAAITWTGGSTYYADSVKGRFTISRDNAKNTVYLQMNSLKPEDTAVYYCAAYKTYAVKYYWGQGTQVTVSS	high polyreactivity
QVQLVESGAGLVQAGGSLRISCAASGRIFAQYAMGWYRQAPGKERELVAAITTTGRTYYADSVKGRFTISRDNAKNTVYLQMNSTKPEETAVYYCAVGYHAPKVSTSDPRYDYWGQGTQVTVSS	low polyreactivity
QVQLVESGGGLDQAGGSLRLSGAASGRILWYNAMGWYRQAPGKERELVAAISWTGGSTYYADSVKGRFTISRDNAKNTVYLQMNSLKPEDTAVYYCNVDTPYTQGFDQRQGYTFDYWGQGTQVTVSS	low polyreactivity
QVQLVESGGGLVQAGGSLRLSCAASGSISYKYAMGWYRQAPGKERELVAAISSSGGRTYYADSVKGRFTISRDNAKNTVYLQMNSLKPEDTAVYYCNADVLFYTYYTRGRFDFDYWGQGTQVTVSS	low polyreactivity
QVQLVESGGGLVQAGGSLRLSCAASGSTIAGNAMGWYRQAPGKERELVAVITRGGSTNYADSVKGRFTISRDNAKNTVSLQMNSLKPEDTAVYYCARYRFLLDYWRGGYYWGQGTQVTVSS	high polyreactivity
QVQLVESGGGLVQAGGSLRLSCAASGIIFYKNVMGWYRQAPGKERELVAAINRSGGRTYYADSVKGRFTISRDNAKNTVYLQMNSLKPEDTAVYYCARSGTVFGRTYDYWGQGTQVTVSS	high polyreactivity
QVQLVESGGGLVQAGGSLRLSCAASGRTFLYYAMGWYRQAPGKERELVAGITSGGSTNYADSVKGRFTITRDNAKNTVYLQMNSLKPEDTAVYYCAVDQGYSRTADVNYDYWGQGTQVTVSS	low polyreactivity
